- Experimental Target: Dihydrofolate reductase (Bacillus cereus (strain ATCC 14579 / DSM 31 / CCUG 7414 / JCM 2152 / NBRC 15305 / NCIMB 9373 / NCTC 2599 / NRRL B-3711), UniProt Q81E04)
- Protocol Description: In Vitro Inhibition Assay
- Run Parameters: pH 7; 25 °C
pIC50: −log10 of the molar value.
Okay, here is how we bin by pIC50: low class: < 5; middle class: ≥ 5 and < 6; high class: ≥ 6

Given COc1ccc(C#CCCCCC(=O)O)cc1Cc1cnc2nc(N)nc(N)c2c1C , name the class its pIC50 places it in.
high class

What about this molecule? Nc1nc(N)c2nc(CNc3ccc4cc(Cl)c(Cl)cc4c3)cnc2n1
middle class

What do we get for CN(Cc1cnc2nc(N)nc(N)c2n1)c1ccc2c(Cl)cc(Cl)cc2c1 ?
low class

And what about the molecule COc1ccc(C#CCCCCC(=O)O)cc1Cc1cnc(N)nc1N ?
low class

Again, but for Nc1nc(N)c2nc(CN3c4ccccc4C=Cc4ccccc43)cnc2n1
low class

Same question for CCOC(=O)CCCCOc1ccc(OC)c(Cc2cnc3nc(N)nc(N)c3c2C)c1 please.
high class

What about CN(Cc1cnc2nc(N)nc(N)c2n1)c1ccc2cc(Cl)ccc2c1 ?
middle class

Then this molecule: COc1ccc(OCCCCC(=O)O)cc1Cc1cnc2nc(N)nc(N)c2c1C
middle class

Please answer likewise for COc1ccc(CCCCCC(=O)O)cc1Cc1cnc(N)nc1N
low class

Check Nc1nc(N)c2nc(CNc3ccc4cc(Cl)ccc4c3)cnc2n1 too.
middle class

====

- Experimental Target: Dihydrofolate reductase (Bacillus cereus (strain ATCC 14579 / DSM 31 / CCUG 7414 / JCM 2152 / NBRC 15305 / NCIMB 9373 / NCTC 2599 / NRRL B-3711))
- Sequence (Q81E04 whole entry): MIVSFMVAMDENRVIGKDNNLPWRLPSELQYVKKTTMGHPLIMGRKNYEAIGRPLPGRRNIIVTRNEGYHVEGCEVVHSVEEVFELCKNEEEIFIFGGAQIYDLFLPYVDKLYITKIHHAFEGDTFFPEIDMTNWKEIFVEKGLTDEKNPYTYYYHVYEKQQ
- Protocol Description: In Vitro Inhibition Assay
- Run Parameters: pH 7; 25 °C
Please go through the items and note down their pIC50.
Scale explanation: pIC50 corresponds to minus log10 of a concentration expressed in moles per litre.

Which measured pIC50 value corresponds to COc1ccc(C#CCCCC(=O)O)cc1Cc1cnc2nc(N)nc(N)c2c1C ?
5.72

Then what about the compound CCOC(=O)CCCOc1ccc(OC)c(Cc2cnc3nc(N)nc(N)c3c2C)c1 ?
6.06

What do you get for COc1cc(NCc2ccc3nc(N)nc(N)c3c2)c(Br)c(OC)c1OC ?
5.96

Please answer likewise for COc1cc(CCc2c[nH]c3nc(N)nc(N)c23)cc(OC)c1OC
3.60

====

- Experimental Target: Dihydrofolate reductase (Bacillus cereus (strain ATCC 14579 / DSM 31 / CCUG 7414 / JCM 2152 / NBRC 15305 / NCIMB 9373 / NCTC 2599 / NRRL B-3711))
- Protocol Description: In Vitro Inhibition Assay
- Run Parameters: pH 7; 25 °C
Assay Readout: log10 of IC50 (log10 of the value in nM)
Hey, these are logged values: log10 of IC50, nM being the unit before logging.

// query log10 of IC50 value for entry COc1ccc(I)cc1Cc1cnc(N)nc1N
4.57

Would you mind doing COc1ccc(OCCCC(=O)O)cc1Cc1cnc2nc(N)nc(N)c2c1C as well?
2.78

Cool, now COc1ccc(OCCCCCC(=O)O)cc1Cc1cnc2nc(N)nc(N)c2c1C [2,4-diamino-5-deazapteridine, 6]
2.71

And what about the molecule Nc1nc(N)c2nc(CNc3ccc4c(Cl)cc(Cl)cc4c3)cnc2n1 ?
3.88

Ok, now CCOC(=O)CCCCCOc1ccc(OC)c(Cc2cnc3nc(N)nc(N)c3c2C)c1
3.27

Origin of measurements: BindingDB's records for doi:10.1128/AAC.00386-06
